Tested on: CCRF-CEM leukemia
Assay: NCI-60 one-dose screen, 48 h (100 = growth as untreated, 0 = no growth, -100 = all killed)
Details: 10 µM unless noted
About 83,000 compounds went through this panel and 20% of them were active in at least one assay; those are over-represented in the sample as a whole.
Classes are defined on growth with ranges label 0: < 20%; label 1: ≥ 20% and < 70%; label 2: ≥ 70%

Smiles Record: COC(=O)c1ccc2c(c1)nc(-c1ccc(Cl)cc1)n2-c1cc(C(C)(C)C)[nH]n1
Assigned Label: label 1
--
Smiles Record: COc1ccc2nc(C)cc(Sc3nc4ccccc4s3)c2c1
Assigned Label: label 0
--
Smiles Record: COc1cnc2c(c1)C(=O)c1c-2n(CCCN2CCNCC2)c(=O)c2cc(Cl)ccc12
Assigned Label: label 0
--
Smiles Record: CCN(CC)c1cc(C)c(Cc2c(OC)ccc3ccccc23)cc1C
Assigned Label: label 2
--
Smiles Record: c1csc(-c2cnc3nonc3n2)c1
Assigned Label: label 2
--
Smiles Record: CCCCOC(=O)c1cc(O)c(O)c(O)c1
Assigned Label: label 1
--
Smiles Record: Cc1ccccc1Nc1n[nH]c(Cc2ccccc2)n1
Assigned Label: label 2
--
Smiles Record: CN1C2CCC1/C(=C\c1ccc(F)cc1)C(=O)/C2=C/c1ccc(F)cc1
Assigned Label: label 0
--
Smiles Record: COc1cc2c(=O)n(CCCN(C)C)c3c4cc[nH]c4ncc3c2cc1OC
Assigned Label: label 1
--
Smiles Record: O=C(CC(=O)c1cccc(Cl)c1)c1cccc(Cl)c1
Assigned Label: label 0

meta.source: PubChem BioAssay (NCI)
